Values were extracted from paper doi:10.1101/2025.05.09.652710v1.

The following compounds each carry a recorded IC50 for hepsin (Homo sapiens).
readout-label: IC50 (nM)

1) CC[C@H](C)[C@H](NC(C)=O)C(=O)N[C@@H](CCC(N)=O)C(=O)N[C@@H](CO)C(=O)N[C@@H](CCCNC(=N)N)C(=O)c1nc2ccccc2s1	2.4
2) CC[C@H](C)[C@H](NC(C)=O)C(=O)N[C@@H](CCC(N)=O)C(=O)N[C@H](C(=O)N[C@@H](CCCNC(=N)N)C(=O)c1nc2ccccc2s1)C(C)C	0.11
3) CC[C@H](C)[C@H](NC(C)=O)C(=O)N[C@@H](CCC(N)=O)C(=O)N[C@@H](Cc1c[nH]c2ccccc12)C(=O)N[C@@H](CCCNC(=N)N)C(=O)c1nc2ccccc2s1	0.32
4) CC[C@H](C)[C@H](NC(C)=O)C(=O)N[C@@H](CCC(N)=O)C(=O)N[C@@H](Cc1ccccc1)C(=O)N[C@@H](CCCNC(=N)N)C(=O)c1nc2ccccc2s1	0.14
5) CC[C@H](C)[C@H](NC(C)=O)C(=O)N[C@@H](CCC(N)=O)C(=O)N[C@H](C(=O)N[C@@H](CCCNC(=N)N)C(=O)c1nc2ccccc2s1)[C@@H](C)O	0.98
